Test system: HS 578T breast
Experiment: NCI tumour cell line growth inhibition, 48 h; in the data active = GI50 below about 0.43 µM; inactive = the rest
Parameter call: string, one of YES for active, NO for inactive

FC(F)(F)c1ccc(NCc2nc3ccccc3[nH]2)cc1    NO

Please state the recorded outcome for this compound: `CCOC(=O)c1cc(-c2ccccc2)[nH]c1N/N=C/c1c(Cl)cccc1Cl` NO

Now give it for `COc1ccc2nc3cc(Cl)ccc3c(Nc3cc(C(C)C)c(O)cc3C)c2c1` too. NO

Also Fc1ccc(C2C3CCOc4c(ccc5ccccc45)C3=NN2c2ccccc2)cc1 (stereo not given) , if possible. NO

# repeat for `CC(=O)C(C=O)C(C)=O.CC(=O)CC(C)=O.CC(=O)CC(C)=O.[Ru]` YES

====

System: RXF 393 renal
Experiment: NCI tumour cell line growth inhibition, 48 h
metric-name: TGI

Consider the following illustrative entries.
CCCCCC(=Nc1n[nH]nc1C(N)=O)OCC    > 100 µM
COC(=O)C(Cc1nc2ccccc2[nH]c1=O)C(=O)C(=O)Nc1ccc(F)cc1 (stereo unspecified)    47.1 µM
C[N+]1(C)C[C@@H](O)C[C@@H]1C(=O)[O-]    > 100 µM
O=C(/C=C/c1ccc(O)cc1)c1cc(Cl)ccc1O    88.9 µM
CNCCN(C)Cc1cn[nH]c1-c1ccc(OC2CC(OCCC3CCOCC3)C2)cc1 (stereo unspecified)    > 100 µM
COC(=O)/C=C1\CCCN1CCc1cc2c(cc1CC#N)OCO2    > 100 µM

Okay, here is my list. What is TGI for each of these?
1. NC(=O)c1cc([N+](=O)[O-])cc([N+](=O)[O-])c1
2. Nc1ccc(C(=O)Nc2ccccc2N)cc1
3. N#CCC1(c2ccc(Cl)cc2)NC(=O)c2ccccc21 (stereo unspecified)
4. Cn1cnc2c1c(=O)n(CCNCCO)c(=O)n2C

1. > 100 µM
2. > 100 µM
3. > 100 µM
4. > 100 µM

What does the data say about its TGI? Entry: CCc1ccc(/C=C/C(=O)C2CN(CC)CCC2(O)/C=C/c2ccc(CC)cc2)cc1 (stereo unspecified) 8.43 µM

====

Field: TGI. Provide a value for each of the molecules that follow.
System: MDA-MB-435
Test: NCI tumour cell line growth inhibition, 48 h

CN(C)c1ccc(/C=c2/c3ccccc3n3c2cc(NC(=O)NCCC[N+](C)(C)C)[n+]3C)cc1    > 100 µM

Here are 7 molecules. What values of TGI were reported for them?
1. CSc1ccc(/C=C2\N=C(c3ccccc3)N(/N=C3\C(=O)Nc4ccccc43)C2=O)cc1
2. CC(C)NC(=O)OCc1c(COC(=O)NC(C)C)c(-c2cc[n+](COC(=O)C(C)C)cc2)n2c1CCC2
3. CCN1C(=O)N(CC)C2C1NN=c1s/c(=C\c3ccc(OC)cc3)c(=O)n12 (stereo not drawn)
4. CC[C@@]1(O)C(=O)NCc2c1cc1n(c2=O)Cc2cc3c(NC(C)=O)cccc3nc2-1
5. NCCNCCNc1ccc(NCCNCCN)c2c1C(=O)c1c(O)ccc(O)c1C2=O
6. COc1ccc2nc3cc(Cl)ccc3c(Nc3cc(C(C)C)c(O)cc3C)c2c1
7. COC(=O)NC1C(C)OC(OC2C/C=C(/C)C3C=CC4C(OC5CC(OC6CC(OC7CC(O)C(O)C(C)O7)C(OC7CC(O)C(OC)C(C)O7)C(C)O6)C(O)C(C)O5)C(C)CC(C)C4C3(C)/C(O)=C3\C(=O)OC4(CC(C)C(CO)=CC4/C=C\2C)C3=O)CC1(C)[N+](=O)[O-] (stereo not drawn)

["> 100 µM", "> 100 µM", "0.105 µM", "> 100 µM", "> 100 µM", "4.48 µM", "> 100 µM"]

====

System: OVCAR-4 ovarian
Test: NCI tumour cell line growth inhibition, 48 h
Could you please report measured GI50 for the items listed next?

Oc1cccc(-c2nc(-c3ccccc3)[nH]c2-c2ccncc2)c1    10.5 µM
COc1c2ccccc2c(O)c2c(=O)ccn(C)c12    30.3 µM
CNCCNc1nc2ccccc2c2c(=O)c3cccc(C)c3sc12    2.1 µM
COc1cc(NC(=O)c2ccccc2Nc2ccnc(C(F)(F)F)c2)cc(OC)c1OC    30.6 µM
Fc1ccc(C2C3CCOc4c(ccc5ccccc45)C3=NN2c2ccccc2)cc1 (stereo not drawn)    > 100 µM

Report GI50 for every entry below.
1. O=C(c1ccco1)c1c(C(F)(F)F)n([O-])c2ccc(F)cc2[n+]1=O
2. O=C1NC(=O)C(c2c[nH]c3ccccc23)=C1c1ccccc1

1.35 µM
> 25 µM

Item `Fc1ccc(-c2nn3c(COc4ccc(Cl)cc4Cl)nnc3s2)cc1Oc1ccccc1` has what recorded GI50? 24.6 µM

====

Tested on: IGROV1 ovarian
Assay: NCI tumour cell line growth inhibition, 48 h
Can you tell me TGI for the items I'm about to list?
Numbers only, in µM.

Below, each entry is followed by its recorded TGI result.
Cn1cnc([N+](=O)[O-])c1Sc1nc2ccc([N+](=O)[O-])cc2[nH]1    58.6
COc1ccc2nc3cc(Cl)ccc3c(Nc3cc(C(C)C)c(O)cc3C)c2c1    3.35
CN1CCc2cc3c4cc2C1Cc1ccc(cc1)Oc1cc(ccc1O)CC1c2c(cc(O)c(c2O4)O3)CCN1C (stereo not given)    14.3

Kindly review the next compound as well.
Which TGI is reported for this compound? `COc1ccc(Nc2nc3ccc(C(F)(F)F)cc3nc2C(=O)O)cc1` 39.5

====

System: RXF-631 renal
Assay: NCI tumour cell line growth inhibition, 48 h
metric-name: TGI

Nc1ccc(C(=O)Nc2ccccc2N)cc1    > 100 µM

Quick batch: TGI for everything below.
1. NC(=O)c1ncn(Cc2ccccc2)c1CNC(N)=S
2. CNC(C)Cc1ccccc1OC (stereo not drawn)
3. CCCCC(C(=O)CCC(=O)Nc1ccc(Cl)cc1)C(=O)C(C)C (stereo not drawn)
4. COC(=O)C(Cc1nc2ccccc2[nH]c1=O)C(=O)C(=O)Nc1ccc(F)cc1 (stereo not drawn)
5. N#CC1C(=O)NC(=O)C1=O (stereo not drawn)
6. CC1(C)CC(N2CCN(C3CC(C)(C)NC(C)(C)C3)CC2)CC(C)(C)N1
7. Cc1ccc2nc3c(C)cc(=O)cc-3sc2c1

1. > 100 µM
2. > 100 µM
3. > 100 µM
4. > 100 µM
5. > 100 µM
6. > 100 µM
7. > 100 µM

====

Tested on: NCI/ADR-RES ovarian
Assay: NCI tumour cell line growth inhibition, 48 h
metric-name: TGI

O=c1c2cc(S(=O)(=O)Nc3ccc(Cl)cc3Cl)ccc2ncn1NS(=O)(=O)c1cccc2ccccc12    > 100 µM

Go through the list and state TGI for each entry.
1. CNCCNc1nc2ccccc2c2c(=O)c3cccc(C)c3sc12
2. Cc1c(O)c(Br)c(C)c(O)c1Br (tested in a mixture with another compound)
3. COc1cc(Cn2c(SCC(=O)Nc3ccc(Cl)cc3)nc3ccccc3c2=O)cc(OC)c1OC
4. C#CC(O)/C=C/C(O)CCCC(O)CC#CC(O)C#CC(O)CCCC(O)/C=C/CCCCCC(=O)CCCCCCCCCCCCCC(O)C(O)C#CC(=O)O (stereo not given)
5. O=C(c1ccco1)c1c(C(F)(F)F)n([O-])c2ccc(F)cc2[n+]1=O
6. CC[C@@]1(O)C(=O)NCc2c1cc1n(c2=O)Cc2cc3c(NC(C)=O)cccc3nc2-1

7.35 µM
> 100 µM
27.6 µM
> 50 µM
5.59 µM
> 100 µM

Value sought for every listed compound: TGI.
1. Nc1nc(OCC2CCCCC2)c2[nH]cnc2n1
2. COc1cc(NC(=O)c2ccccc2Nc2ccnc(C(F)(F)F)c2)cc(OC)c1OC
3. O=C1OCCC[C@H]2O[C@@H](COCc3ccccc3)C[C@@H]12

1. > 100 µM
2. > 100 µM
3. > 100 µM

====

Test system: TK-10 renal
Experiment: NCI tumour cell line growth inhibition, 48 h
metric-name: TGI

Illustrative cases are given below, each with its answer.
CCOC(=O)c1c2ccc(/C=C/c3ccccc3)ccc-2c(C(=O)OCC)c1N    > 100 µM
Cc1c(N=Nc2ccc(Cl)cc2)c(C)n(C2OC(CO)C(O)C(O)C2O)c(=S)c1C#N (stereo unspecified)    79.5 µM
O=C(c1ccco1)c1c(C(F)(F)F)n([O-])c2ccc(F)cc2[n+]1=O    3.36 µM
Cn1ccoc1=Nc1ccc(Cl)c(Cl)c1    > 10 µM
NCCNCCCNC(=O)c1cc(-c2ccccc2)nc2ccccc12    > 100 µM

For the next question, use this compound.
# input compound: `O=c1[nH]c(SCc2ccccc2[N+](=O)[O-])nc2nc[nH]c12` ; wanted: its TGI > 100 µM

====

Test system: BT-549 breast
Experiment: NCI tumour cell line growth inhibition, 48 h
*1 amine or outer side, *2 acyl side, *3 side chain or, on linkers, in order; H or OH if unused. Where a SMILES comes first, the peptide text is derived from it. The star is where a group is joined. γGlu = O=C(O)[CH](CCC(=O)[*:2])N[*:1]; NHOH = ON*
metric-name: TGI

Worked examples follow.
CCCCCCSc1nc(COC(=O)NC)c(COC(=O)NC)n1C    > 100 µM
N[C@@H](CSSC[C@H](N)C(=O)N1CCn2cc(-c3ccccc3)nc2[C@@H]1CC1CCCCC1)C(=O)N1CCn2cc(-c3ccccc3)nc2[C@@H]1CC1CCCCC1    3.91 µM
COc1cccc(/C=C\c2ccnc3ccccc23)c1    > 10 µM
CCc1ccc([O-])c(C=NCCCN(C)CCCN=Cc2cc(C)ccc2[O-])c1.[Co+3].[N-]=[N+]=[N-]    50 µg/mL
CCOC(=O)CNC(=O)C(CCC(=O)NO)NC(=O)CCC(N)C(=O)O (stereo not given) (γGlu-Glu(NHOH)-Gly-OEt; configuration not given here)    > 100 µM
OCc1ccc(N(Cc2ccc(F)cc2)CC2CCC2)cc1Cl    32.3 µM

Look up TGI for the entries below, preserving their order.
1. Cc1[nH]n(-c2cccc(Cl)c2)c(=O)c1/C=C1\C=c2ccccc2=CC1=O
2. COc1cc2c(cc1OC)C(=O)/C(=C/c1cc(Cl)cc(Cl)c1)C2
3. O=C(O)c1nc2ccccc2nc1NCc1ccc(F)cc1
4. CN(C)CCCN1c2ccc([N+](=O)[O-])cc2CCc2cc([N+](=O)[O-])ccc21
5. O=C1/C(=C/c2ccccc2[N+](=O)[O-])COc2ccc(O)c(O)c21
6. OCCCCCCCCCCCOc1ccc(C2OCC3(CC=CCC3)CO2)cc1 (stereo not given)

["> 100 µM", "> 100 µM", "> 100 µM", "29.2 µM", "4.02 µM", "30.9 µM"]

// for each compound below, give its TGI
1. CC[C@@]1(O)C(=O)NCc2c1cc1n(c2=O)Cc2cc3c(NC(C)=O)cccc3nc2-1
2. CC/C(=N/N=C(N)N)c1ccc(NC(=O)Nc2ccc(/C(CC)=N/N=C(N)N)cc2)cc1
3. COc1ccc2c(c1)CCc1c-2n(CCN2CCOCC2)c2ccc(OC)cc12
4. Cc1cc2c(cc1C)C(=O)/C(=C/c1ccccc1C(=O)O)C2
5. CCOC(=O)c1cc(-c2ccccc2)[nH]c1N/N=C/c1c(Cl)cccc1Cl
6. CCCc1n(Cc2ccc3ccccc3n2)cc[n+]1Cc1ccc2ccccc2n1
7. COc1ccc(/C=C2\N=C(c3ccccc3)OC2=O)cc1OC(C)=O
8. CNc1ncnc2c1cnn2CCCCO

> 100 µM
21.1 µM
> 100 µM
> 100 µM
18.9 µM
8 µM
> 100 µM
> 100 µM
